FYI, the data here is from the supplement of paper PMC4466140.

Each entry below carries its recorded SPOT peptide array binding signal intensity.
system.tested: CaBzz1-D2
experiment.description: SPOT peptide array binding signal intensity (averaged, normalized) (arbitrary units (background-subtracted, floor 0; scale differs between SH3 domains)); higher = stronger binding of the SH3 domain to the peptide
Form field (numeric): enter value without unit.

Example entries and their recorded answers appear below.
binder: SKIRPTPRKPSRMAT
recorded.value: 208
--
binder: RRARRQMGIPTISQV
recorded.value: 115
--
binder: RVRKTHVPASKRPSG
recorded.value: 48.8
--
binder: GAGERPRLVPRPINV
recorded.value: 51.2
--
binder: RVTRKRPREPKSTND
recorded.value: 174
--
binder: SKAKRPKFLLDLQIK
recorded.value: 127
--
binder: NAGIRPKFILALNDE
recorded.value: 26.2
--
binder: RRGPAPPPPPRASRP
recorded.value: 2600

Please give the measured SPOT peptide array binding signal intensity for this binder: "PHNPSPFFPPPDFND"
1.53e-05

Follow-up item: "SRYRRPLTLLLLKPF"
14.2

Follow-up item: "GQYRRTIVIPRRFFT"
45

Follow-up item: "VKPRQLFPIPLNKVD"
59

Follow-up item: "LRWRHKFFLPAIAAI"
0.25

Follow-up item: "FPGKKSPRLPHRNKK"
126
